- test target: α3/β4 nAChR channel (Homo sapiens, UniProt P30926+P32297)
- Sequence (P32297 32-505): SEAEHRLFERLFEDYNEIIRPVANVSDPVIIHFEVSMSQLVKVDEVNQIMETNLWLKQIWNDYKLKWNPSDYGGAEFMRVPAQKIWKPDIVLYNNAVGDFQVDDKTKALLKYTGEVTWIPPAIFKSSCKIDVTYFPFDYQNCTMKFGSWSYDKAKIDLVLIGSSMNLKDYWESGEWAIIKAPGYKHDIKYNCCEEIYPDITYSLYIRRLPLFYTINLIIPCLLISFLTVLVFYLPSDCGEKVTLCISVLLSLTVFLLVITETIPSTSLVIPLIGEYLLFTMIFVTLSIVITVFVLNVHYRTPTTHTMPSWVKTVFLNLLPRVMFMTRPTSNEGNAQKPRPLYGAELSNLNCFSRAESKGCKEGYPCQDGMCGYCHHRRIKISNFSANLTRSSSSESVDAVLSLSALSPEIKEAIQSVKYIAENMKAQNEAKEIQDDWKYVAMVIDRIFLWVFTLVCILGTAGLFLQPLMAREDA
- Sequence (P30926 22-498): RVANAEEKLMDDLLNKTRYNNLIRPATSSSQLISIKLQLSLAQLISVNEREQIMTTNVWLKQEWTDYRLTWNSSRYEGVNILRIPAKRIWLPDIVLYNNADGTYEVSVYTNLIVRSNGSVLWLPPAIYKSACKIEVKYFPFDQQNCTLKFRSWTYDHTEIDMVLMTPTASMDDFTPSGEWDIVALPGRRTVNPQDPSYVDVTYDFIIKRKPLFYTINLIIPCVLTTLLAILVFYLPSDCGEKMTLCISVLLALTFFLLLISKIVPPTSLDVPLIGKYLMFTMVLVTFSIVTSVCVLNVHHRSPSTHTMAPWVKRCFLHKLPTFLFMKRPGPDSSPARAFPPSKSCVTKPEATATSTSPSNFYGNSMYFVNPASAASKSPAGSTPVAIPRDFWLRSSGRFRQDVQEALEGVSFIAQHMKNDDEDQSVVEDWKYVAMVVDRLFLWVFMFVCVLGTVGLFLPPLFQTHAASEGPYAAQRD
- protocol summary: Fluo-8 calcium FLIPR assay, cloned nAChR channels in mammalian cells
- protocol conditions: agonist assay
measured quantity: pEC50
Notebook: values listed as pEC50 are -log10 of the concentration (mol/L).

For C1=CCC(c2cccnc2)NC1 (racemic) the compound record lists pEC50 as 4.84

Numbers sourced from patent US20130298921A1.
